The following molecules are shown together with reported GI50 values.
- Test system: SN12C
- test name: NCI tumour cell line growth inhibition, 48 h
Activity calls are given as the source filed them. Cut-off read from the data, not from the text of the source: active = GI50 up to about 1.1 µM and inactive = higher.

Req: Supply GI50 value. Item: CC(=O)O[C@]12CCCCCC1C1(O)C(O)CCCC[C@H]12 (stereo partly drawn)
Resp: > 100 µM (inactive)

Req: Hello, please tell me recorded GI50 for this one: CCOC(=O)Cc1nc2sc(S(N)(=O)=O)nn2c1Br
Resp: 23.5 µM (inactive)

Req: Indicate the recorded GI50 value for this molecule: CCCN1CN(c2ccccc2)C2(CCN(CCCC(=O)c3ccc(F)cc3)CC2)C1=O
Resp: 2.94 µM (inactive)

Req: Fill in GI50 for record N#CC(C#N)=C1SC(=N\c2ccccc2)/C(=N/c2ccccc2)N1c1ccccc1
Resp: 23.9 µM (inactive)

Req: Retrieve GI50 measured for C[C@]12CCC(=O)C(O)=C1CC[C@@H]1[C@@H]2CC[C@]2(C)C(=O)CC[C@@H]12 [FORMESTANE] and print it.
Resp: > 100 µM (inactive)

Req: Please look at this molecule and report its GI50: O=C(OCC(OC(=O)c1ccccc1)C1CC(C(O)C2CCCCC2)C(=O)O1)c1ccccc1 (stereo not drawn)
Resp: 47.6 µM (inactive)

Req: Name the recorded GI50 of the item CC1CC(=O)C(C(O)CC2CC(=O)N(c3ccccc3)C(=O)C2)C(C)C1 (stereo not drawn) in your answer.
Resp: > 100 µM (inactive)

Req: Supply recorded GI50 for C=C(C1=CC(=O)C(C)(C)O1)[C@@H]1CC=C([C@@H]2CC[C@H]3[C@@]2(C)CC[C@H]2C(C)(C)C(=O)[C@H](O)C[C@]32C)[C@H](O)O1 here.
Resp: 1.98 µM (inactive)

----------
- Tested on: HCT-15
readout label: GI50 (µM)
Output spec: scalar in µM, unitless text.

{"molecule": "COC(=O)/C=C(\\C(=O)OC)c1c2c3c(cc(OC)c(OC)c3c3ccccc13)CCN2C", "tested target": "HCT-15", "unit label": "µM", "GI50": 22.3}
{"molecule": "CC(C)C[C@H](NC(=O)CCc1cccc2ccccc12)B(O)O", "tested target": "HCT-15", "unit label": "µM", "GI50": 1.26}
{"molecule": "CSc1cnc2ccccc2c1Sc1cn(C)c2ccccc2c1=O", "tested target": "HCT-15", "unit label": "µM", "GI50": 35.8}
{"molecule": "O=c1[nH]n(Cc2ccccc2Cl)c2ccc([N+](=O)[O-])cc12", "tested target": "HCT-15", "unit label": "µM", "GI50": 58.6}
{"molecule": "COc1cc2[nH]c3c(c2cc1OC)CCN[C@]31CC[C@]2(CC3c4c(cc(OC)c(O)c42)CCN3C)C[C@H]1OC (stereo not given in full)", "tested target": "HCT-15", "unit label": "µM", "GI50": 18.8}

Req: Specify measured GI50 for Cc1cc2[nH]c(=NS(=O)(=O)c3cc(C)c(Cl)cc3S)[nH]c2cc1C .
Resp: 73.3

----------
As shown below, each of these compounds has a reported GI50 value.
- System: LOX IMVI
- test name: NCI tumour cell line growth inhibition, 48 h
Calls of active or inactive are those of the source. Rule as the data show it: active = GI50 up to about 1.1 µM and inactive = higher.

A selection of reference data follows.
{"molecule": "Cc1ccc(/N=N/c2c(O)ccc3ccccc23)c(C)c1", "readout label": "GI50", "experimental result": "> 100 µM (inactive)"}
{"molecule": "CCc1n[nH]c(=O)n1CCCCCCCCCCCCn1c(CC)n[nH]c1=O", "readout label": "GI50", "experimental result": "24.8 µM (inactive)"}

--- query ---
Req: Recall the reported GI50 of C=CC(=O)NCNC(=O)C=C when tested on LOX IMVI.
Resp: > 100 µM (inactive)
